MEASUREMENT TARGET: Acetylcholinesterase (Homo sapiens, UniProt P22303)
Sequence (P22303 whole entry): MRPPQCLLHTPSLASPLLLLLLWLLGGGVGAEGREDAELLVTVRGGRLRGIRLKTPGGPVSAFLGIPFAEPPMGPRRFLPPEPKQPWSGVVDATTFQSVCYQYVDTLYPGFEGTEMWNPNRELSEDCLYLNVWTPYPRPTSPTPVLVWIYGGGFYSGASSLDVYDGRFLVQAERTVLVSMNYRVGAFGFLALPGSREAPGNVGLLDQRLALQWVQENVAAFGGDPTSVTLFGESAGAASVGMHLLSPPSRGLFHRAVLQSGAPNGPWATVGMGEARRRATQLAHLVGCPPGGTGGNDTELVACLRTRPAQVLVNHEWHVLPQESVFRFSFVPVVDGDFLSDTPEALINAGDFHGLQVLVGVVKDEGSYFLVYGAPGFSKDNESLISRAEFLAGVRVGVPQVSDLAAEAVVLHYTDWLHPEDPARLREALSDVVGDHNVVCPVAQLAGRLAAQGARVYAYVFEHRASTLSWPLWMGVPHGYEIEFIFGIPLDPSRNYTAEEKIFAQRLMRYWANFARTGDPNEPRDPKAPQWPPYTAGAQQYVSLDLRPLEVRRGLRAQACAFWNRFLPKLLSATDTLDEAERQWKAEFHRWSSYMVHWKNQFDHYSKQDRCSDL
PROTOCOL NOTES: Inhibition of human erythrocyte recombinant AchE after 20 mins
Here, each record is paired with measured IC50 data.
READOUT: IC50 (nM)

- SAMPLE SMILES: "COc1ccccc1CNCCCCCC(=O)N1CCC(CCC2CCN(C(=O)CCCCCNCc3ccccc3OC)CC2)CC1"
  READOUT: "IC50"
  QUANTITATIVE READOUT: 135
- SAMPLE SMILES: "COc1ccccc1CNCCCCCCN1CCC(CCC2CCN(CCCCCCNCc3ccccc3OC)CC2)CC1"
  READOUT: "IC50"
  QUANTITATIVE READOUT: 1290

###

MEASUREMENT TARGET: Muscarinic acetylcholine receptor M2 (Homo sapiens, UniProt P08172)
Sequence (P08172 whole entry): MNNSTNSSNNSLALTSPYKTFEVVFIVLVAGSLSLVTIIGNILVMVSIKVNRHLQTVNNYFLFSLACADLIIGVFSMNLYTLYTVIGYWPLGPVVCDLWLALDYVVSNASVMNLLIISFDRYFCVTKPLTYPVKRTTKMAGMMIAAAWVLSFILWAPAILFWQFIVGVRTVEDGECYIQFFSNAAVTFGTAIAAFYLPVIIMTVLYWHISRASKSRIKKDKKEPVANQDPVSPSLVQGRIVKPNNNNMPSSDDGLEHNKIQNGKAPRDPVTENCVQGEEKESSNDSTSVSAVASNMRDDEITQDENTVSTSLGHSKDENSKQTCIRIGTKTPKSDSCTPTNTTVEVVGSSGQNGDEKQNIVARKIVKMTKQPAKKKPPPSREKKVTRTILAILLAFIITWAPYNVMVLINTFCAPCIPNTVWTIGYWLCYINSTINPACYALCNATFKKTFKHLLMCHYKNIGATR
pKi: −log10 of the molar value.
READOUT: pKi

- SAMPLE SMILES: "COc1ccccc1CNCCCCCCN1CCC(CCC2CCN(CCCCCCNCc3ccccc3OC)CC2)CC1"
  QUANTITATIVE READOUT: 8.22

###

Here, each record is paired with measured pKb data.
MEASUREMENT TARGET: Muscarinic acetylcholine receptor M3 (Cavia porcellus) (UniProt Q8VH26)
Sequence (Q8VH26 1-587): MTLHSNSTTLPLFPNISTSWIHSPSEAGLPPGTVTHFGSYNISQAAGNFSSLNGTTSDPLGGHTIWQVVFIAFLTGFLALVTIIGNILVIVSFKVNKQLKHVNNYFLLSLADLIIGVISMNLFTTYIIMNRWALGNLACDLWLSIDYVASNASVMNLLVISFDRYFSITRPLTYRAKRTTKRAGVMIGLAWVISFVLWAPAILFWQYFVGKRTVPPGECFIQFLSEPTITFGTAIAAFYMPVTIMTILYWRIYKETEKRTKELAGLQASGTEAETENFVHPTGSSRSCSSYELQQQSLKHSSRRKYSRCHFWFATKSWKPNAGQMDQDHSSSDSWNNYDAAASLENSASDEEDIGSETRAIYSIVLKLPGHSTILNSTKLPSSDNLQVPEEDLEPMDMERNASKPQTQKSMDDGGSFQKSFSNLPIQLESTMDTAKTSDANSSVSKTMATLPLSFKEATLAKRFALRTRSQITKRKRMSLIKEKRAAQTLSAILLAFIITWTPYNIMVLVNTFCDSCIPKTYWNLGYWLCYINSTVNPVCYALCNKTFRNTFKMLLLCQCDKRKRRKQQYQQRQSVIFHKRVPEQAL
PROTOCOL NOTES: Antagonist potency at muscarinic receptor M3 in guinea pig ileum
Type: functional, tissue-based

- SAMPLE SMILES: "COc1ccccc1CNCCCCCC(=O)N1CCC(CCC2CCN(C(=O)CCCCCNCc3ccccc3OC)CC2)CC1"
  LIMIT OPERATOR: "="
  pKb: 5.14
- SAMPLE SMILES: "COc1ccccc1CNCCCCCC(=O)Nc1ccc(Cc2ccc(NC(=O)CCCCCNCc3ccccc3OC)cc2)cc1"
  LIMIT OPERATOR: "="
  pKb: 5.32
- SAMPLE SMILES: "COc1ccccc1CNCCCCCCNc1ccc(Cc2ccc(NCCCCCCNCc3ccccc3OC)cc2)cc1"
  LIMIT OPERATOR: "="
  pKb: 5.35
- SAMPLE SMILES: "COc1ccccc1CNCCCCCCN1CCC(CCC2CCN(CCCCCCNCc3ccccc3OC)CC2)CC1"
  LIMIT OPERATOR: "="
  pKb: 6.58
- SAMPLE SMILES: "COc1ccccc1CNCCCCCCN1CCC(C2CCN(CCCCCCNCc3ccccc3OC)CC2)CC1"
  LIMIT OPERATOR: "="
  pKb: 6.08
- SAMPLE SMILES: "COc1ccccc1CNCCCCCCN1CCC(CCCC2CCN(CCCCCCNCc3ccccc3OC)CC2)CC1"
  LIMIT OPERATOR: "="
  pKb: 6.37
- SAMPLE SMILES: "COc1ccccc1CNCCCCCCNCCCCCCCCNCCCCCCNCc1ccccc1OC"
  LIMIT OPERATOR: "="
  pKb: 6.32
- SAMPLE SMILES: "COc1ccccc1CNCCCCCC(=O)N1CCC(C2CCN(C(=O)CCCCCNCc3ccccc3OC)CC2)CC1"
  LIMIT OPERATOR: "="
  pKb: 5.62
- SAMPLE SMILES: "COc1ccccc1CNCCCCCC(=O)N1CCC(CCCC2CCN(C(=O)CCCCCNCc3ccccc3OC)CC2)CC1"
  LIMIT OPERATOR: "="
  pKb: 5.09
- SAMPLE SMILES: "COc1ccccc1CNCCCCCC(=O)N1CCC(CC2CCN(C(=O)CCCCCNCc3ccccc3OC)CC2)CC1"
  LIMIT OPERATOR: "="
  pKb: 5.48
- SAMPLE SMILES: "COc1ccccc1CNCCCCCC(=O)Nc1ccc(CCc2ccc(NC(=O)CCCCCNCc3ccccc3OC)cc2)cc1"
  LIMIT OPERATOR: "<"
  pKb: 5
- SAMPLE SMILES: "COc1ccccc1CNCCCCCCN1CCC(CC2CCN(CCCCCCNCc3ccccc3OC)CC2)CC1"
  LIMIT OPERATOR: "="
  pKb: 5.82

###

MEASUREMENT TARGET: Muscarinic acetylcholine receptor M4 (Homo sapiens) (UniProt P08173)
Sequence (P08173 whole entry): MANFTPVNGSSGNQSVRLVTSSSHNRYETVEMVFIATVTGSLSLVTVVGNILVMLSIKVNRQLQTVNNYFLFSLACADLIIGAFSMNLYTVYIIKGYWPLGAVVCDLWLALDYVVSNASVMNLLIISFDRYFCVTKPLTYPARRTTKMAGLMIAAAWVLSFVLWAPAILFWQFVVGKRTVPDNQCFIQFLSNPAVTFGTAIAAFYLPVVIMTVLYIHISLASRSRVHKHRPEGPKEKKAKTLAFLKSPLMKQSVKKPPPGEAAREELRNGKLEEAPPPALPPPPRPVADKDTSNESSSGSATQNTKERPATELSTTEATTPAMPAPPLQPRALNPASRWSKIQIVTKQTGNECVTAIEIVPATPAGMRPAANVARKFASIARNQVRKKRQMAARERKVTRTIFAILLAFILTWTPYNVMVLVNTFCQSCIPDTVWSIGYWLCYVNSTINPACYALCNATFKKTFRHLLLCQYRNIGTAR
PROTOCOL NOTES: Antagonist potency at muscarinic receptor M4 in rabbit vas deferens
Format: functional, tissue-based
ASSAY CONTEXT: Oryctolagus cuniculus, target entry is the homologue from another species

- SAMPLE SMILES: "COc1ccccc1CNCCCCCC(=O)N1CCC(C2CCN(C(=O)CCCCCNCc3ccccc3OC)CC2)CC1"
  LIMIT OPERATOR: "="
  pKb: 6
- SAMPLE SMILES: "COc1ccccc1CNCCCCCCNCCCCCCCCNCCCCCCNCc1ccccc1OC"
  LIMIT OPERATOR: "="
  pKb: 6.45
- SAMPLE SMILES: "COc1ccccc1CNCCCCCC(=O)N1CCC(CCC2CCN(C(=O)CCCCCNCc3ccccc3OC)CC2)CC1"
  LIMIT OPERATOR: "="
  pKb: 6.09
- SAMPLE SMILES: "COc1ccccc1CNCCCCCCNc1ccc(CCc2ccc(NCCCCCCNCc3ccccc3OC)cc2)cc1"
  LIMIT OPERATOR: "<"
  pKb: 5.52

###

MEASUREMENT TARGET: UniProt P08172
PROTOCOL NOTES: Antagonist potency at muscarinic receptor M2 in guinea pig atrium
Format: functional, tissue-based
ASSAY CONTEXT: Cavia porcellus; Cardiac atrium; target entry is the homologue from another species
Here, each record is paired with measured pKb data.
READOUT: pKb

- SAMPLE SMILES: "COc1ccccc1CNCCCCCC(=O)N1CCC(CC2CCN(C(=O)CCCCCNCc3ccccc3OC)CC2)CC1"
  READOUT: "pKb"
  LIMIT OPERATOR: "="
  QUANTITATIVE READOUT: 6.29
- SAMPLE SMILES: "COc1ccccc1CNCCCCCC(=O)N1CCC(CCC2CCN(C(=O)CCCCCNCc3ccccc3OC)CC2)CC1"
  READOUT: "pKb"
  LIMIT OPERATOR: "="
  QUANTITATIVE READOUT: 5.91
- SAMPLE SMILES: "COc1ccccc1CNCCCCCCN1CCC(C2CCN(CCCCCCNCc3ccccc3OC)CC2)CC1"
  READOUT: "pKb"
  LIMIT OPERATOR: "="
  QUANTITATIVE READOUT: 7.12
- SAMPLE SMILES: "COc1ccccc1CNCCCCCCNc1ccc(-c2ccc(NCCCCCCNCc3ccccc3OC)cc2)cc1"
  READOUT: "pKb"
  LIMIT OPERATOR: "<"
  QUANTITATIVE READOUT: 5
- SAMPLE SMILES: "COc1ccccc1CNCCCCCCN1CCC(CC2CCN(CCCCCCNCc3ccccc3OC)CC2)CC1"
  READOUT: "pKb"
  LIMIT OPERATOR: "="
  QUANTITATIVE READOUT: 7.16
- SAMPLE SMILES: "COc1ccccc1CNCCCCCCN1CCC(CCC2CCN(CCCCCCNCc3ccccc3OC)CC2)CC1"
  READOUT: "pKb"
  LIMIT OPERATOR: "="
  QUANTITATIVE READOUT: 7.98

###

Here, each record is paired with measured pKb data.
MEASUREMENT TARGET: Muscarinic acetylcholine receptor M2 (Homo sapiens) (UniProt P08172)
PROTOCOL NOTES: Antagonist potency at muscarinic receptor M2 in guinea pig atrium
Format: functional, tissue-based
ASSAY CONTEXT: Cavia porcellus; Cardiac atrium; target entry is the homologue from another species

- SAMPLE SMILES: "COc1ccccc1CNCCCCCCNc1ccc(Cc2ccc(NCCCCCCNCc3ccccc3OC)cc2)cc1"
  LIMIT OPERATOR: "<"
  pKb: 5
- SAMPLE SMILES: "COc1ccccc1CNCCCCCCNc1ccc(CCc2ccc(NCCCCCCNCc3ccccc3OC)cc2)cc1"
  LIMIT OPERATOR: "<"
  pKb: 5
- SAMPLE SMILES: "COc1ccccc1CNCCCCCC(=O)N1CCC(CCCC2CCN(C(=O)CCCCCNCc3ccccc3OC)CC2)CC1"
  LIMIT OPERATOR: "="
  pKb: 5.11
- SAMPLE SMILES: "COc1ccccc1CNCCCCCCN1CCC(CCCC2CCN(CCCCCCNCc3ccccc3OC)CC2)CC1"
  LIMIT OPERATOR: "="
  pKb: 7.52
- SAMPLE SMILES: "COc1ccccc1CNCCCCCC(=O)Nc1ccc(Cc2ccc(NC(=O)CCCCCNCc3ccccc3OC)cc2)cc1"
  LIMIT OPERATOR: "="
  pKb: 5.47
- SAMPLE SMILES: "COc1ccccc1CNCCCCCC(=O)Nc1ccc(CCc2ccc(NC(=O)CCCCCNCc3ccccc3OC)cc2)cc1"
  LIMIT OPERATOR: "<"
  pKb: 5
- SAMPLE SMILES: "COc1ccccc1CNCCCCCC(=O)Nc1ccc(-c2ccc(NC(=O)CCCCCNCc3ccccc3OC)cc2)cc1"
  LIMIT OPERATOR: "="
  pKb: 5.31
- SAMPLE SMILES: "COc1ccccc1CNCCCCCC(=O)N1CCC(C2CCN(C(=O)CCCCCNCc3ccccc3OC)CC2)CC1"
  LIMIT OPERATOR: "="
  pKb: 6.5
